# tested.system: Prolyl endopeptidase (Homo sapiens, UniProt P48147)
# Sequence (P48147 whole entry): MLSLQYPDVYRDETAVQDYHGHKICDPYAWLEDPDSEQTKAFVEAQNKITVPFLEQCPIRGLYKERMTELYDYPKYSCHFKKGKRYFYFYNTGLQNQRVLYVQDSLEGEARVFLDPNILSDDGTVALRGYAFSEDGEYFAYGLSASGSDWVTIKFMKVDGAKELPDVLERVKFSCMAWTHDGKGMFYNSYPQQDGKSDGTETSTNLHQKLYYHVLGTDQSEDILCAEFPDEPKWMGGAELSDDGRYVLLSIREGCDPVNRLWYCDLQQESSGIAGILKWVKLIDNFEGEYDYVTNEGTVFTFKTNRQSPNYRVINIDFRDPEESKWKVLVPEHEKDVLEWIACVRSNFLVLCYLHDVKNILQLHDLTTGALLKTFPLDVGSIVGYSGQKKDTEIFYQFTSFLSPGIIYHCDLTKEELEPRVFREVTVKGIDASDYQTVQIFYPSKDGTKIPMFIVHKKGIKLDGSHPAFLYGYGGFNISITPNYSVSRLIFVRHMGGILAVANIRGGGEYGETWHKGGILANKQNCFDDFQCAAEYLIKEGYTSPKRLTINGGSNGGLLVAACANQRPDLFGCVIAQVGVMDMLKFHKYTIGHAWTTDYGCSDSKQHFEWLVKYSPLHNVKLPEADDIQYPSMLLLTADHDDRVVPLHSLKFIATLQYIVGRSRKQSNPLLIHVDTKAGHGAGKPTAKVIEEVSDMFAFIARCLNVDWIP
# protocol: Inhibition of human brain prolyl oligopeptidase expressed in Escherichia coli
pIC50: −log10 of the molar value.
Measured pIC50, listed per entry for reference.
readout: pIC50

O=c1c(O)c(-c2ccc(O)cc2)oc2cc(O)cc(O)c12 = < 3.70
O=c1c(O)c(-c2ccccc2)oc2cc(O)ccc12 [3,7-DIHYDROXYFLAVONE] = < 3.70
O=c1c(O)c(-c2ccc(O)c(O)c2)oc2cc(O)cc(O)c12 = 4.89

meta.source: ChEMBL document CHEMBL1155939
